Reference for the values: ChEMBL document CHEMBL1201862

Kindly supply the reported GI50 values for the records listed here.
system: HOP-62; assay: NCI tumour cell line growth inhibition, 48 h
Active and inactive are the calls of the source. Rule as the data show it: active = GI50 up to about 1.1 µM and inactive = higher.

{"columns": ["molecule", "GI50"],
 "data": [
  ["NCC(=O)NC(CCCC(NC(=O)CN)P(=O)(O)O)P(=O)(O)O (centres undefined)", "> 100 µM (inactive)"]
]}

// each listed molecule needs a value for GI50
1. Nc1cccc2c1C(=O)c1cccc(N)c1C2=O
2. O=C(Nc1sccc1S(=O)(=O)c1ccc(Cl)cc1)c1ccc(F)cc1F

> 100 µM (inactive)
24.9 µM (inactive)

###

test system: M14; assay: NCI tumour cell line growth inhibition, 48 h
Active and inactive are the calls of the source. Rule as the data show it: active = GI50 up to about 1.1 µM and inactive = higher.
For each of the compounds below, state its GI50.

Recorded results for 5 compounds are shown here.
{"columns": ["compound", "target_desc", "result"],
 "data": [
  ["OC(CC1CCCCN1)c1ccc2c(c1)oc1ccccc12 (stereo unspecified)", "M14", "18.8 µM (inactive)"],
  ["CSc1nc(C#N)c(N)n1C", "M14", "> 100 µM (inactive)"],
  ["Cc1ccc(S(=O)(=O)OCCC2CN(C(=O)OCc3ccccc3)C(C)(C)O2)cc1 (stereo unspecified)", "M14", "7.38 µM (inactive)"],
  ["CCCCCCc1cc2cc(C(=O)Nc3ccc(F)cc3)c(=N)oc2cc1O", "M14", "2.92 µM (inactive)"],
  ["N#CC(c1ccc(Cl)cc1)c1c(=O)[nH]c2ccc(N)cc2[n+]1[O-] (stereo unspecified)", "M14", "> 100 µM (inactive)"]
]}

Requested field: GI50. Item: COc1ccc(Nc2nc3cc(C(F)(F)F)ccc3n3cccc23)cc1OC
14.3 µM (inactive)

###

system: LXFL 529; assay: NCI tumour cell line growth inhibition, 48 h
Active and inactive are the calls of the source. Rule as the data show it: active = GI50 up to about 1.1 µM and inactive = higher.
Use one of these outcomes when replying: active, inactive

{"columns": ["molecule", "label_class"],
 "data": [
  ["O=C(/C=C/c1ccc[nH]1)c1ccccc1", "inactive"],
  ["Brc1cccc(C2SCc3nc4ccccc4n32)c1 (stereo unspecified)", "inactive"],
  ["Cc1ccccc1N(CC(=O)O)S(=O)(=O)c1ccccc1", "inactive"]
]}

// return assay outcome for CC1=C[C@H]2c3c([nH]c4ccccc34)C(c3c[nH]c4ccccc34)[C@H]2CC1 (stereo partly specified)
inactive

Another: COc1cc2c(cc1OC)-c1cc3cc(OC)c(OC)cc3n1CC2
inactive

Another molecule to look at: O=c1[nH]c(Br)nc2c(N3CCCCC3)c[nH]c12
inactive

Okay, and COc1cc(/C=C\c2ccc(Br)cc2)cc(OC)c1OC ?
active

###

Please respond with reported GI50 for every item in the list.
test system: HCT-116; test: NCI tumour cell line growth inhibition, 48 h
The source made the active and inactive calls. Cut-off read from the data, not from the text of the source: active = GI50 up to about 1.1 µM and inactive = higher.

Example molecules with recorded GI50:
{"columns": ["molecule", "target_desc", "GI50"],
 "data": [
  ["O=C(c1ccc(Cl)c(Cl)c1)N(Cc1cccnc1)C(=S)N(Cc1cccnc1)C(=O)c1ccc(Cl)c(Cl)c1", "HCT-116", "25.2 µM (inactive)"],
  ["O=C(Nc1sccc1S(=O)(=O)c1ccc(Cl)cc1)c1ccc(F)cc1F", "HCT-116", "45.8 µM (inactive)"],
  ["O=[N+]([O-])c1ccc(C2c3c(O)nc(S)nc3Oc3nc(S)nc(O)c32)cc1", "HCT-116", "> 100 µM (inactive)"]
]}

The following molecules each have a reported value; give each one's GI50.
1. CCCCn1c(C)c(C(=O)OCC)s/c1=N/Nc1nc2ccccc2nc1-c1ccccc1
2. CC(=O)OC[C@H]1O[C@@H](O[C@H]2[C@H](OC(C)=O)C=CO[C@@H]2COC(C)=O)C(OC(C)=O)[C@H]2OC(C)(C)O[C@H]21 (some centres undefined)
3. COCCCNC(=O)C1C(=O)C(=O)N(CCCOC)C1=O (centres undefined)
4. CC(C)(C)C1CCC2(CC1)CCN(CCCN1CCOCC1)CC2
5. O=C1CCCCCCCCCCC1CCCCCBr (centres undefined)
6. O=C(Nc1ccc(Cl)c(Cl)c1)C(=O)C(C1OC(=O)c2ccccc21)[N+](=O)[O-] (centres undefined)
7. C[C@H](CCc1nc(C#N)c(N)o1)[C@H]1CC[C@H]2[C@@H]3[C@@H](O)CC4C[C@@H](O)CC[C@]4(C)[C@H]3C[C@@H](O)[C@]12C (some centres undefined)

1: > 100 µM (inactive); 2: > 100 µM (inactive); 3: > 100 µM (inactive); 4: 27.6 µM (inactive); 5: 17 µM (inactive); 6: > 100 µM (inactive); 7: 21.4 µM (inactive)

Kindly give each listed record's GI50.
1. CN(C(=O)C12C3(C(=O)O)C4C5(C(=O)O)C3C1(C(=O)O)C5C42C(=O)O)C(C)(C)C (centres undefined)
2. CC(C)c1cccc(C(C)C)c1NC(=S)NN=C1C=C(C(C)(C)C)C(=O)C(C(C)(C)C)=C1

> 100 µM (inactive)
3.59 µM (inactive)

Can you give me GI50 for all of these, one by one?
1. O=c1[nH]c2ccc(Cl)cc2o1
2. CCN(CC)Cc1cc(Nc2ccnc3ccc4c(nnn4C)c23)ccc1O

1: > 100 µM (inactive); 2: 4.93 µM (inactive)

Please give GI50, item by item, for the list that follows.
1. Nc1nc(Cl)cc(NCC2(CO)CCC(O)C2)n1 (centres undefined)
2. N=C(N)NNC(=O)CCCCCCCC(=O)NNC(=N)N
3. C=C1c2cc3c(cc2CC12Cc1cc4c(cc1C2=O)CCC4)CCC3 (centres undefined)
4. C/C(=N\NC(=S)NC(C)C)c1nc2cccnc2[nH]1
5. N#CCc1nc(O)c2ccccc2n1
6. O=C(O)/C=C\C(=O)Nc1ccccn1

1. > 100 µM (inactive)
2. > 100 µM (inactive)
3. > 100 µM (inactive)
4. 11.3 µM (inactive)
5. > 100 µM (inactive)
6. > 100 µM (inactive)

# return GI50 for each item in the list
1. COc1ccc(/C=c2\sc3nnc(CCC(=O)Nc4cccc(C(F)(F)F)c4)n3c2=O)cc1
2. O=[N+]([O-])/C(C(Cl)=C(Cl)Cl)=C(\Nc1cccc2cccnc12)SCc1ccccc1
3. O=[N+]([O-])/C(C(Cl)=C(Cl)Cl)=C1\Nc2ccc([N+](=O)[O-])cc2N1

1. > 100 µM (inactive)
2. 19.8 µM (inactive)
3. 46.5 µM (inactive)

Would you be so kind as to report GI50 for each listed record?
1. O=c1oc2ccccc2cc1-c1cc2ccccn2c1
2. c1ccc2c(Cc3c[nH]c4ccccc34)c[nH]c2c1

["> 100 µM (inactive)", "17.1 µM (inactive)"]

Please go through the list and note GI50 for each molecule.
1. CCOP(=O)(OCC)C(Nc1cccc([N+](=O)[O-])c1)c1ccccc1 (centres undefined)
2. COC(=O)N1CCc2c(nc(N(C)CCO)[nH]c2=O)C1
3. O=c1[nH]c(=O)n(COCc2ccccc2)c2ccccc12
4. Cc1cc2c(O)c(c1)COCc1cc(C)cc(c1O)COCc1cc(C)cc(c1O)COC2
5. COC(=O)C12CCCN1CCC2

1. 65 µM (inactive)
2. > 100 µM (inactive)
3. 46.3 µM (inactive)
4. 32.7 µM (inactive)
5. > 100 µM (inactive)

Batch lookup, GI50 per entry.
1. COC(=O)/C=C(C)/C=C\COC1CCCCO1 (centres undefined)
2. O=[N+]([O-])c1ccc2c(c1)C1=C(CO2)Cc2ccccc2O1
3. O=C(CCCCCCCCC(=O)N1C(=O)CC(=O)N(c2ccccc2)C1=S)N1C(=O)CC(=O)N(c2ccccc2)C1=S
4. CC12CC(=O)C3C(CCC4=CC(=O)CCC43C)C1CC=C2CC(=O)O (centres undefined)
5. O=c1[nH]c2cc(-c3ccccc3)nc-2nn1-c1c(Cl)cc(Cl)cc1Cl
6. Nc1ccc(C(=O)NN2C(=O)C(Cl)C2c2ccc([N+](=O)[O-])cc2)cc1 (centres undefined)

["> 100 µM (inactive)", "16.3 µM (inactive)", "> 100 µM (inactive)", "> 100 µM (inactive)", "22.4 µM (inactive)", "1.63 µM (inactive)"]
